experiment: Metabolic stability in human liver microsomes assessed as parent compound turnover at 1 uM after 15 mins; assay type: ADME, Microsome; conditions: read-out: Stability
Attribute measured: metabolised at 0.25 h, 1 µM (%)

Substance smiles | Attribute measured | Units | Numeric readout
Cn1cc(S(=O)(=O)N2CC(CNC(=O)c3ccc(Cl)cc3Cl)(c3ncccc3F)C2)nn1 | metabolised at 0.25 h, 1 µM | % | 22
CCCS(=O)(=O)N1CCC(CNC(=O)c2ccc(Cl)cc2Cl)(c2ncccc2F)CC1 | metabolised at 0.25 h, 1 µM | % | 23
Cn1cc(S(=O)(=O)N2CC(CNC(=O)c3ccc(Cl)cc3Cl)(CC3CC3)C2)nn1 | metabolised at 0.25 h, 1 µM | % | 32
Cn1cc(S(=O)(=O)N2CC(CNC(=O)c3ccc(Cl)cc3Cl)(CC3CC3)C2)cn1 | metabolised at 0.25 h, 1 µM | % | 21
O=C(NCC1(c2ncccc2F)CCN(S(=O)(=O)c2cccnc2)CC1)c1ccc(Cl)cc1Cl | metabolised at 0.25 h, 1 µM | % | 99
Cn1cc(S(=O)(=O)N2CCC(CNC(=O)c3ccc(Cl)cc3Cl)(c3ncccc3F)CC2)nn1 | metabolised at 0.25 h, 1 µM | % | 20
Cn1cc(S(=O)(=O)[C@H]2CC[C@@](CNC(=O)c3ccc(Cl)cc3Cl)(CC3CC3)CC2)nn1 | metabolised at 0.25 h, 1 µM | % | 28
Cn1cc(S(=O)(=O)N2CCC(CNC(=O)c3ccc(Cl)cc3Cl)(c3ncccc3F)CC2)cn1 | metabolised at 0.25 h, 1 µM | % | 42
Cn1cc(S(=O)(=O)N2CCC(CNC(=O)c3ccc(Cl)cc3Cl)(CC3CC3)CC2)nn1 | metabolised at 0.25 h, 1 µM | % | 43

* * *

assay: Half life in Sprague-Dawley rat at 0.1 mg/kg, iv and 1 mg/kg, po; type: ADME, organism-based; conditions: in vivo

Substance smiles | Units | half-life
Cn1cc(S(=O)(=O)N2CC(CNC(=O)c3ccc(Cl)cc3Cl)(CC3CC3)C2)cn1 | h | 2.4
Cn1cc(S(=O)(=O)N2CCC(CNC(=O)c3ccc(Cl)cc3Cl)(CC3CC3)CC2)nn1 | h | 1.1
Cn1cc(S(=O)(=O)N2CCC(CNC(=O)c3ccc(Cl)cc3Cl)(c3ncccc3F)CC2)nn1 | h | 0.3
Cn1cc(S(=O)(=O)[C@H]2CC[C@@](CNC(=O)c3ccc(Cl)cc3Cl)(CC3CC3)CC2)nn1 | h | 1.8
Cn1cc(S(=O)(=O)[C@H]2CC[C@](CNC(=O)c3ccc(Cl)cc3Cl)(CC3CC3)CC2)nn1 | h | 1.1

* * *

biological target: Sodium- and chloride-dependent glycine transporter 1 (Homo sapiens); assay: Inhibition of [3H]glycine uptake at human glycine transporter 1 expressed in human JAR cells after 3 hrs by scintillation counting
Sequence (P48067 whole entry): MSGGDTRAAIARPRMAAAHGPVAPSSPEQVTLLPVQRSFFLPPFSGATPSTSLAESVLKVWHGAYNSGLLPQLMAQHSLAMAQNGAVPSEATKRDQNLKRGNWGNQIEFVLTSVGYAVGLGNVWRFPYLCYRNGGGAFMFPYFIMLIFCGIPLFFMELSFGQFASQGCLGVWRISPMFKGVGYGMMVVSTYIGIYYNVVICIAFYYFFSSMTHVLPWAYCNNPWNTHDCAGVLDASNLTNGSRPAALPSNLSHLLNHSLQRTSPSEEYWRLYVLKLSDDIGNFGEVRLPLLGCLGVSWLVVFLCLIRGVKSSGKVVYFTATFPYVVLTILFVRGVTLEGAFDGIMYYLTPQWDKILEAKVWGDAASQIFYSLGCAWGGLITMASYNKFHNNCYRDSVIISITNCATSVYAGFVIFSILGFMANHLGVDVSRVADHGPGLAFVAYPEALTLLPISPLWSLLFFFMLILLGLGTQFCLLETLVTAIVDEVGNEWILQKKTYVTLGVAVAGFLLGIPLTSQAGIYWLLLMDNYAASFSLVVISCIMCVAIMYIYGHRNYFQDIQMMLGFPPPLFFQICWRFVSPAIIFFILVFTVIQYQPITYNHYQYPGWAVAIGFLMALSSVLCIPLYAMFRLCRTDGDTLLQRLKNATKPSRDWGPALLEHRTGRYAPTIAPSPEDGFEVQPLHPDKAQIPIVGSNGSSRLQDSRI
pIC50: −log10 of the molar value.
Below is a list of entries, each paired with its recorded pIC50 value.
Attribute measured: pIC50

Substance smiles | Attribute measured | Numeric readout
Cn1ncc(S(=O)(=O)N2CC(CNC(=O)c3ccc(Cl)cc3Cl)(CC3CC3)C2)n1 | pIC50 | 6.88
Cn1cc(S(=O)(=O)N2CCC(CNC(=O)c3ccc(Cl)cc3Cl)(CC3CC3)CC2)cn1 | pIC50 | 7.99
O=C(NCC1(CC2CC2)CCN(S(=O)(=O)c2cn(CC(F)(F)F)nn2)CC1)c1ccc(Cl)cc1Cl | pIC50 | 6.30
Cn1cc(S(=O)(=O)N2CC(CNC(=O)c3ccc(Cl)cc3Cl)(CC3CC3)C2)cn1 | pIC50 | 8.44
CCn1cc(S(=O)(=O)N2CC(CNC(=O)c3ccc(Cl)cc3Cl)(CC3CC3)C2)nn1 | pIC50 | 8.59
Cn1cc(S(=O)(=O)N2CC(CNC(=O)c3ccc(Cl)cc3Cl)(c3ncccc3F)C2)nn1 | pIC50 | 9.51
O=C(NCC1(c2ncccc2F)CCN(S(=O)(=O)c2cccs2)CC1)c1ccc(Cl)cc1Cl | pIC50 | 6.90
O=C(NCC1(CC2CC2)CN(S(=O)(=O)c2c[nH]nn2)C1)c1ccc(Cl)cc1Cl | pIC50 | 6.06
Cn1cc(S(=O)(=O)N2CC(CNC(=O)c3ccc(Cl)cc3Cl)(CC3CC3)C2)nn1 | pIC50 | 10.00
